biological target: Acetylcholinesterase (Homo sapiens, UniProt P22303); test: Inhibition of human serum recombinant AChE using acetylthiocholine iodide as a substrate incubated for 20 mins by DTNB reagent based Ellman's method
Sequence (P22303 whole entry): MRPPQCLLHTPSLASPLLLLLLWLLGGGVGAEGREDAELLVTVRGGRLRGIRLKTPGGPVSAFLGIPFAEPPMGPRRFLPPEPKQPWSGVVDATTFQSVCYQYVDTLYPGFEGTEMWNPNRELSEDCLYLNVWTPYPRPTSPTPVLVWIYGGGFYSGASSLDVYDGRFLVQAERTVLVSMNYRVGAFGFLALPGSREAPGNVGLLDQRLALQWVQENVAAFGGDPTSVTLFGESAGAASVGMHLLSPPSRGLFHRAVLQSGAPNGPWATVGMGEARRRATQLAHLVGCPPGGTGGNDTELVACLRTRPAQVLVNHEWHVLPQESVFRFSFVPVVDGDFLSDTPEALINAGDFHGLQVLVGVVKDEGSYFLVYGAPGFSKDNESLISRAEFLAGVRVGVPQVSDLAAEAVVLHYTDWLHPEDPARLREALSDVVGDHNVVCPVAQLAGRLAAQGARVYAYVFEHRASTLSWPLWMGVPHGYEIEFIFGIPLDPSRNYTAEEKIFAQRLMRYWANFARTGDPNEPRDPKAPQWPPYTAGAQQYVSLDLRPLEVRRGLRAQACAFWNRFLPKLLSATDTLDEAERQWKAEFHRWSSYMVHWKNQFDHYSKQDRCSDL
Property name: IC50 (nM)
Write the number in nM without appending the unit.

Exam item: I would be grateful if you could share the reported IC50 for `CCN(CC)Cc1ccc(/C=C2/Cc3cc(OC)ccc3C2=O)cc1` .
Marked response: 1150

Exam item: Item: `CCN(CC)Cc1ccc(C=C2Cc3cc(OC)ccc3C2=O)cc1`
Marked response: 505

Exam item: Item: `CCN(CC)Cc1ccc(/C=C2\Cc3ccccc3C2=O)cc1`
Marked response: 612

Exam item: Item: `CCN(CC)Cc1ccc(/C=C2\Cc3ccc(OC)cc3C2=O)cc1`
Marked response: 964

Exam item: Item: `CCN(CC)Cc1ccc(C=C2Cc3cc(OC)c(OC)cc3C2=O)cc1`
Marked response: 253

Exam item: Item: `CCN(CC)Cc1ccc(C=C2Cc3ccc(OC)cc3C2=O)cc1`
Marked response: 1100

Exam item: Item: `CCN(CC)Cc1ccc(/C=C2\Cc3cc(OC)c(OC)cc3C2=O)cc1`
Marked response: 63

Exam item: Item: `CCN(CC)Cc1ccc(C=C2Cc3ccccc3C2=O)cc1`
Marked response: 1310

Exam item: Item: `CCN(CC)Cc1ccc(/C=C2\Cc3cc(OC)ccc3C2=O)cc1`
Marked response: 113
